- TEST DETAILS: Cytotoxicity against mouse RAW264.7 cells assessed as cell viability at 1 uM incubated for 18 hrs by celltiter-glo luminescent assay relative to control
- Format: cell-based
- SETTINGS: read-out: Activity
# reported viability at 18 h, 1 µM; entries follow

MOLECULE	READING UNIT	viability at 18 h, 1 µM
C=C1CC[C@H]2C(C)(C)CCC[C@]2(C)[C@H]1C/C=C1\CCOC1=O	%	107
CC1(C)CCC[C@@]2(C)[C@H]1CC[C@]1(CO1)[C@@H]2C/C=C1\CCOC1=O	%	97.6
C=C1CC[C@H]2C(C)(C)CCC[C@]2(C)[C@H]1/C=C/C1=CCOC1=O [VILLOSIN]	%	105
C=C1CC[C@H]2C(C)(C)CCC[C@]2(C)[C@H]1C/C=C1\C=COC1=O	%	97.7
C=C1CC[C@H]2C(C)(C)CCC[C@]2(C)[C@H]1C/C=C1\CC(OCC)OC1=O (some centres undefined)	%	100
C=C1CC[C@H]2C(C)(C)CCC[C@]2(C)[C@H]1CC=O	%	101
C=C1CC[C@H]2C(C)(C)CCC[C@]2(C)[C@H]1C/C=C1\C(=O)OC[C@H]1O	%	95.5
C=C1CC[C@H]2C(C)(C)CCC[C@]2(C)[C@H]1C/C=C1/CCOC1=O	%	101
CC1(C)CCC[C@@]2(C)[C@H]1CC[C@@]1(CO1)[C@@H]2C/C=C1\CCOC1=O	%	97

* * *

- TEST DETAILS: Cytotoxicity against mouse RAW264.7 cells assessed as cell viability at 20 uM incubated for 18 hrs by celltiter-glo luminescent assay relative to control
- Type: cell-based
- SETTINGS: read-out: Activity

COMPOUND	viability at 18 h, 20 µM (%)
C=C1CC[C@H]2C(C)(C)CCC[C@]2(C)[C@H]1C/C=C1/C(=O)OC[C@H]1O	53.7
C=C1CC[C@H]2C(C)(C)CCC[C@]2(C)[C@H]1C/C=C1\CC(OCC)OC1=O (stereo not given in full)	96.3
C=C1CC[C@H]2C(C)(C)CCC[C@]2(C)[C@H]1C[C@H](O)[C@H]1C(=O)OC[C@H]1O	98.3
CC1(C)CCC[C@@]2(C)[C@H]1CC[C@]1(CO1)[C@@H]2C/C=C1\CCOC1=O	85.7
CC1(C)CCC[C@@]2(C)[C@H]1CC[C@@]1(CO1)[C@@H]2C/C=C1\CCOC1=O	80.4

* * *

- TEST DETAILS: Cytotoxicity against mouse RAW264.7 cells assessed as cell viability at 20 uM incubated for 18 hrs by celltiter-glo luminescent assay relative to control
- Type: cell-based
- SETTINGS: read-out: Activity
# reported viability at 18 h, 20 µM; entries follow
ENDPOINT NAME: viability at 18 h, 20 µM (%)

MOLECULE	OBS VALUE
C=C1CC[C@H]2C(C)(C)CCC[C@]2(C)[C@H]1C/C=C1\C(=O)OC[C@H]1O	47.5
C=C1CC[C@H]2C(C)(C)CCC[C@]2(C)[C@H]1C/C=C1\CCOC1=O	100
C=C1CC[C@H]2C(C)(C)CCC[C@]2(C)[C@H]1C/C=C1\CC(OC)OC1=O (stereo not given in full)	100
C=C1CC[C@H]2C(C)(C)CCC[C@]2(C)[C@H]1C/C=C1\C=COC1=O	82.6
C=C1CC[C@H]2C(C)(C)CCC[C@]2(C)[C@H]1C/C=C1\CC(O)OC1=O (stereo not given in full)	79

* * *

# reported Activity; entries follow
- Tested on: RAW264.7
- TEST DETAILS: Anti-inflammatory activity in mouse RAW264.7 cells assessed as inhibition of LPS-induced IL-6 production at 0.1 uM pretreated for 1 hr followed by LPS stimulation and measured after 18 hrs by ELISA relative to control
- Assay type: functional
- Parameters: scale not given: the % may be the effect or the level left

MOLECULE	READING UNIT	Activity
CC1(C)CCC[C@]2(C)[C@H]3CC(=O)O[C@]3(C)CC[C@@H]12	%	94.6
C=C1CC[C@H]2C(C)(C)CCC[C@]2(C)[C@H]1C[C@@H](O)C1=CCOC1=O	%	100.6
C=C1CC[C@H]2C(C)(C)CCC[C@]2(C)[C@H]1C/C=C1/C(=O)OC[C@H]1O	%	99.2
C=C1CC[C@H]2C(C)(C)CCC[C@]2(C)[C@H]1C/C=C1\C(=O)OC[C@H]1O	%	100.7
C=C1CC[C@H]2C(C)(C)CCC[C@]2(C)[C@H]1C/C=C1\CC(OCC)OC1=O (stereo partly specified)	%	102.3
C=C1CC[C@H]2C(C)(C)CCC[C@]2(C)[C@H]1CC=O	%	100
C=C1CC[C@H]2C(C)(C)CCC[C@]2(C)[C@H]1C/C=C1\CCOC1=O	%	103
C=C1CC[C@H]2C(C)(C)CCC[C@]2(C)[C@H]1/C=C/C1=CCOC1=O	%	98.4
C=C1CC[C@H]2C(C)(C)CCC[C@]2(C)[C@H]1C/C=C1\CC(OC)OC1=O (stereo partly specified)	%	101
C=C1CC[C@H]2C(C)(C)CCC[C@]2(C)[C@H]1C[C@H](O)[C@H]1C(=O)OC[C@H]1O	%	104.6
CC1(C)CCC[C@@]2(C)[C@H]1CC[C@@]1(CO1)[C@@H]2C/C=C1\CCOC1=O	%	101.6
C=C1CC[C@H]2C(C)(C)CCC[C@]2(C)[C@H]1C/C=C1\CC(O)OC1=O (stereo partly specified)	%	99.1
C=C1CC[C@H]2C(C)(C)CCC[C@]2(C)[C@H]1C/C=C1\C=COC1=O	%	99
CC1(C)CCC[C@@]2(C)[C@H]1CC[C@]1(CO1)[C@@H]2C/C=C1\CCOC1=O	%	102.3
C=C1CC[C@H]2C(C)(C)CCC[C@]2(C)[C@H]1C/C=C(\CCO)C(=O)O	%	106
C=C1CC[C@H]2C(C)(C)CCC[C@]2(C)[C@H]1C/C=C1/CCOC1=O	%	101.5

* * *

# reported viability at 18 h, 20 µM; entries follow
- TEST DETAILS: Cytotoxicity against mouse RAW264.7 cells assessed as cell viability at 20 uM incubated for 18 hrs by celltiter-glo luminescent assay relative to control
- Format: cell-based
- SETTINGS: read-out: Activity

SMILES ENTRY	viability at 18 h, 20 µM [%]
C=C1CC[C@H]2C(C)(C)CCC[C@]2(C)[C@H]1CC=O	91.9
C=C1CC[C@H]2C(C)(C)CCC[C@]2(C)[C@H]1C/C=C(\CCO)C(=O)O	87.6
CC1(C)CCC[C@]2(C)[C@H]3CC(=O)O[C@]3(C)CC[C@@H]12	95.9
C=C1CC[C@H]2C(C)(C)CCC[C@]2(C)[C@H]1C/C=C1/CCOC1=O	85
C=C1CC[C@H]2C(C)(C)CCC[C@]2(C)[C@H]1/C=C/C1=CCOC1=O	59
C=C1CC[C@H]2C(C)(C)CCC[C@]2(C)[C@H]1C[C@@H](O)C1=CCOC1=O	91.9

* * *

- TEST DETAILS: Cytotoxicity against mouse RAW264.7 cells assessed as cell viability at 1 uM incubated for 18 hrs by celltiter-glo luminescent assay relative to control
- Type: cell-based
- SETTINGS: read-out: Activity
# reported viability at 18 h, 1 µM; entries follow
ENDPOINT NAME: viability at 18 h, 1 µM

COMPOUND	ENDPOINT NAME	OBS VALUE
CC1(C)CCC[C@]2(C)[C@H]3CC(=O)O[C@]3(C)CC[C@@H]12	viability at 18 h, 1 µM	96.6%
C=C1CC[C@H]2C(C)(C)CCC[C@]2(C)[C@H]1C/C=C1\CC(OC)OC1=O (some centres not stated)	viability at 18 h, 1 µM	102%
C=C1CC[C@H]2C(C)(C)CCC[C@]2(C)[C@H]1C[C@@H](O)C1=CCOC1=O [CURCUCOMOSIN C]	viability at 18 h, 1 µM	111%
C=C1CC[C@H]2C(C)(C)CCC[C@]2(C)[C@H]1C[C@H](O)[C@H]1C(=O)OC[C@H]1O	viability at 18 h, 1 µM	106%
C=C1CC[C@H]2C(C)(C)CCC[C@]2(C)[C@H]1C/C=C1/C(=O)OC[C@H]1O	viability at 18 h, 1 µM	95.6%
C=C1CC[C@H]2C(C)(C)CCC[C@]2(C)[C@H]1C/C=C(\CCO)C(=O)O	viability at 18 h, 1 µM	99.2%
C=C1CC[C@H]2C(C)(C)CCC[C@]2(C)[C@H]1C/C=C1\CC(O)OC1=O (some centres not stated)	viability at 18 h, 1 µM	92.7%

* * *

- TEST DETAILS: Cytotoxicity against mouse RAW264.7 cells assessed as cell viability at 5 uM incubated for 18 hrs by celltiter-glo luminescent assay relative to control
- Assay type: cell-based
- SETTINGS: read-out: Activity

SMILES ENTRY	READING UNIT	viability at 18 h, 5 µM
C=C1CC[C@H]2C(C)(C)CCC[C@]2(C)[C@H]1/C=C/C1=CCOC1=O	%	103
CC1(C)CCC[C@@]2(C)[C@H]1CC[C@@]1(CO1)[C@@H]2C/C=C1\CCOC1=O	%	90.9
C=C1CC[C@H]2C(C)(C)CCC[C@]2(C)[C@H]1C/C=C(\CCO)C(=O)O	%	96.6
C=C1CC[C@H]2C(C)(C)CCC[C@]2(C)[C@H]1C[C@@H](O)C1=CCOC1=O	%	108

Values from ChEMBL document CHEMBL4393681
